# System: U-251
# assay: NCI tumour cell line growth inhibition, 48 h
The source made the active and inactive calls. Rule as the data show it: active = GI50 up to about 1.1 µM and inactive = higher.
Item-by-item account of GI50

Examples with answers:
molecule=COc1ccc(/C=C2\N=C(N3CCCCC3)NC2=O)cc1 experimental_result="> 100 µM (inactive)"
molecule="O=[N+]([O-])c1cccc(C2=NOC3C4CCC(C4)C23)c1 (stereo unspecified)" experimental_result="> 100 µM (inactive)"
molecule=CCOC(=O)c1ccc(O)cc1 experimental_result="> 100 µM (inactive)"
molecule="BrC1(Br)C2/C=C\\CCCCC21 (stereo unspecified)" experimental_result="> 100 µM (inactive)"
molecule=O=C(CCC(=O)N/N=C/c1ccccc1O)N/N=C/c1ccccc1O experimental_result="32.7 µM (inactive)"

Req: Entry under review: CC(=O)c1ccc2c(c1)CC1(C2)Cc2cc3c(c(C(=O)O)c2C1)CCC3 (stereo unspecified) . Reported GI50?
Resp: 55.8 µM (inactive)

###

# Test system: DU-145
# assay: NCI tumour cell line growth inhibition, 48 h
Calls of active or inactive are those of the source. Rule as the data show it: active = GI50 up to about 1.1 µM and inactive = higher.
property-label: GI50

compound="COCCOCCOCCOc1ccc(C(C#N)N(CCc2ccccc2)C(=O)c2cc(C(=O)N(CCc3ccccc3)C(C#N)c3ccc(OCCOCCOCCOC)cc3)cc(C(=O)N(CCc3ccccc3)C(C#N)c3ccc(OCCOCCOCCOC)cc3)c2)cc1 (stereo not drawn)" experimental_result="> 100 µM (inactive)"
compound="C=CC/N=C(\\S)Nc1sc2c(c1C(=O)OCC)CC(C)CC2 (stereo not drawn)" experimental_result="30.6 µM (inactive)"

Req: Query GI50 on DU-145 for CCOC(=O)/C=C/C1OC(C)(C)OC1/C=C/C(=O)OCC (stereo not drawn)
Resp: 34.8 µM (inactive)

Req: Then this compound: COC(=O)c1c(O)ccc2c1c1c(n2Cc2ccccc2Cl)C(=O)c2ccccc2C1=O
Resp: 15.5 µM (inactive)

Req: Then this compound: CC(C)=CCC(O)C1=CC(=O)c2c(O)ccc(O)c2C1=O (stereo not drawn)
Resp: 1.22 µM (inactive)

Req: Then this compound: CC(C)(C)OC(=O)N1CCC23CCCC2C(=O)CC=C13 (stereo not drawn)
Resp: > 100 µM (inactive)

Req: Then this compound: CCOC(=O)c1c(NC(=S)Nc2ccc(C)cc2)sc2c1CCN(C)C2
Resp: > 100 µM (inactive)

Req: Then this compound: CC(C)C1=CC23CCC4C(C)(C(=O)O)CCCC4(C)C2CC1C1C(=O)N(CCCCCCN2C(=O)C4C5CC6C7(C)CCCC(C)(C(=O)O)C7CCC6(C=C5C(C)C)C4C2=O)C(=O)C13 (stereo not drawn)
Resp: > 10 µM (inactive)

###

Item-by-item account of GI50
# Tested on: Malme-3M
# assay: NCI tumour cell line growth inhibition, 48 h
Calls of active or inactive are those of the source. No stated cut-off is given here; in the data, active = GI50 up to about 1.1 µM and inactive = higher.

Examples with answers:
compound=COc1ccc(NC2=CC(=O)C(=O)c3ccccc32)nn1 assay_target=Malme-3M property_label=GI50 experimental_result="0.661 µM (active)"
compound=CC(=O)On1c(-c2ccccc2-c2nc3ccccc3n2OC(C)=O)nc2ccccc21 assay_target=Malme-3M property_label=GI50 experimental_result="15.1 µM (inactive)"
compound=CCCCCCCCCCCCCCCCCCC1=C(O)C(=O)C=C(OC)C1=O assay_target=Malme-3M property_label=GI50 experimental_result="64.9 µM (inactive)"

Req: Entry under review: CC1(c2ccc(F)cc2)C2C(=O)NC(=O)C1C(=O)NC2=O (stereo unspecified) . Reported GI50?
Resp: > 100 µM (inactive)

Req: Then this compound: CC1CCCN1CCCOC(=O)c1ccc(OC2C=CCCC2)cc1 (stereo unspecified)
Resp: 18.9 µM (inactive)

Req: Then this compound: CO/C=C(/C(=O)OC)[C@@H]1C[C@@H]1c1ccc2ccccc2c1
Resp: 20.2 µM (inactive)

###

# System: MCF7
# assay: NCI tumour cell line growth inhibition, 48 h
Activity calls are given as the source filed them. No stated cut-off is given here; in the data, active = GI50 up to about 1.1 µM and inactive = higher. Bridge positions count the residues as written; N and C are the ends. Square brackets hold non-standard residues; d marks the D form. Peptide text beside a SMILES is read from it. I, II: the chains in the order shown. * marks the point of attachment. Quinoxaline2carbonyl = O=C(c1cnc2ccccc2n1)*; NMeV = CN[CH](C(=O)O)C(C)C; NMeC = CN[CH](CS)C(=O)O
Select the matching outcome among yes (1) for active, no (0) for inactive

Here's what some known entries look like.
compound=O=C(Cc1ccccc1)NCCc1ccc(O)c(O)c1 assigned_class="no (0)"
compound="CC1C(c2ccc(N(C)C)cc2)c2cc3c(cc2OC1N1CCCC1)OCO3 (stereo unspecified)" assigned_class="no (0)"
compound=CC(=O)OCCOCCN1CCN(C2=C(Cl)C(=O)c3c(O)ccc(O)c3C2=O)CC1 assigned_class="yes (1)"
compound="CC1NC(=O)C(NC(=O)c2cnc3ccccc3n2)COC(=O)C(C(C)C)N(C)C(=O)C2CSSCC(C(=O)N(C)C(C(C)C)C(=O)OCC(NC(=O)c3cnc4ccccc4n3)C(=O)NC(C)C(=O)N2C)N(C)C1=O (stereo unspecified) (I: Quinoxaline2carbonyl-SA[NMeC][NMeV] / II: Quinoxaline2carbonyl-SA[NMeC][NMeV]; ester I:1-II:C, I:C-II:1; disulfide I:3-II:3; configuration not given here)" assigned_class="yes (1)"
compound=COc1ccc(-n2c(=O)n(C)c(=O)n2-c2c(C)c(C)c(C)c(C)c2C)cc1 assigned_class="no (0)"
compound=Brc1ccc(C2(N3CCCCC3)CCCCC2)s1 assigned_class="no (0)"

Req: // return assay outcome for O=[N+]([O-])c1ccccc1S(=O)(=O)c1ccccc1[N+](=O)[O-]
Resp: no (0)

Req: Then this compound: O=C(Sc1c(-c2ccccc2)c(=O)n(-c2ccccc2)c(=S)n1-c1ccccc1)c1ccco1
Resp: no (0)

Req: Then this compound: CCOC(=O)C(CC(C)C)NC(=O)C(Cc1ccc(N(CCCl)CCCl)cc1)NC(C)=O (stereo unspecified)
Resp: no (0)

Req: Then this compound: Oc1ccccc1-c1n[nH]c(-c2ccccc2O)n1
Resp: yes (1)

Req: Then this compound: O=C1CSC(c2c[nH]c3ccccc23)N1c1ccc(Cl)cc1 (stereo unspecified)
Resp: no (0)

Req: Then this compound: O=C1C(OC(=O)c2ccccc2)=C(c2ccc(O)cc2)C(=O)C(OC(=O)c2ccccc2)=C1c1ccc(O)cc1
Resp: no (0)

Req: Then this compound: COc1ccc(CCn2cnc3ccccc32)cc1
Resp: no (0)

Req: Then this compound: CCCCCCNC(=S)N/N=C(\C)c1ccccn1
Resp: yes (1)

Req: Then this compound: CC1=NOC(=O)/C1=C/c1ccc2c(c1)OCO2
Resp: no (0)

Req: Then this compound: CCCCC#CS(=O)(=O)C(F)(F)F
Resp: no (0)

###

# Tested on: COLO 205
# assay: NCI tumour cell line growth inhibition, 48 h
Calls of active or inactive are those of the source. Rule as the data show it: active = GI50 up to about 1.1 µM and inactive = higher.
property-label: GI50

Examples with answers:
molecule="O=C(Cc1ccccc1)N/N=C(\\C1=Nc2ccc([N+](=O)[O-])cc2NC1O)C(O)c1ccc([N+](=O)[O-])cc1 (stereo not given)" property_label=GI50 experimental_result="64.1 µM (inactive)"
molecule=CC[C@@]1(N(C)C)C(=O)OCc2c1cc1n(c2=O)Cc2cc3ccccc3nc2-1 property_label=GI50 experimental_result="> 100 µM (inactive)"
molecule=CCN(CC)Cc1sc2nc3ccccc3n2c1-c1ccc(OC)cc1 property_label=GI50 experimental_result="21.5 µM (inactive)"
molecule=C/C(=N/Nc1nc(C)cc(O)n1)C(=O)O property_label=GI50 experimental_result="> 100 µM (inactive)"
molecule=COc1ccc2c3c([nH]c2c1)CCN(CCCC(=O)c1ccc(F)cc1)C3 property_label=GI50 experimental_result="12.8 µM (inactive)"
molecule=Cc1cc(Cl)ccc1NC(=O)C(=O)Cc1occc(=O)c1O property_label=GI50 experimental_result="> 100 µM (inactive)"
molecule=CO[C@@]12C[C@@H](C)C3=CCC(C)=C3CC1=C(C)C(=O)O2 property_label=GI50 experimental_result="> 100 µM (inactive)"
molecule="COC(=O)C1(C)OC(C)=NC1(C(=O)OC)C(=O)OC (stereo not given)" property_label=GI50 experimental_result="> 100 µM (inactive)"
molecule="COC1/C=C\\C=C(/C)C(=O)NC2=CC(=O)C=C(C2=O)C(OC)C(C)CC(OC)C(OC)C(C)/C=C(/C)C1OC(N)=O (stereo not given)" property_label=GI50 experimental_result="0.084 µM (active)"
molecule="CC(C)(C)OC(=O)N1CCC23CCCC2C(=O)CC=C13 (stereo not given)" property_label=GI50 experimental_result="70.8 µM (inactive)"

Req: Query GI50 on COLO 205 for CCCCCCCCCCCCCCCCCCC1=C(O)C(=O)C=C(OC)C1=O
Resp: 48.5 µM (inactive)

Req: Then this molecule: Cc1ccc(N2C(=O)C(=CN)C(=O)N(c3ccc(C)cc3)C2=O)cc1
Resp: > 100 µM (inactive)

Req: Then this molecule: CO[C@@]12[C@H](COC(N)=O)C3=C(C(=O)C(C)=C(N)C3=O)N1C[C@@H]1N[C@@H]12
Resp: 1.02 µM (active)

Req: Then this molecule: O=C(N/N=C1\C(=O)N(c2nccs2)C(=O)C(=O)C1c1nc2ccccc2s1)c1ccccc1O (stereo not given)
Resp: > 100 µM (inactive)

Req: Then this molecule: COc1ccc(CC2Cc3ccccc3CCN2)cc1OC (stereo not given)
Resp: 11.3 µM (inactive)

Req: Then this molecule: C[C@]12CC(c3ccccc3O1)C(C(N)=O)C(=O)N2 (stereo not given in full)
Resp: > 100 µM (inactive)
